# System Under Test: 5-hydroxytryptamine receptor 7 (Homo sapiens)
# Sequence (P34969 whole entry): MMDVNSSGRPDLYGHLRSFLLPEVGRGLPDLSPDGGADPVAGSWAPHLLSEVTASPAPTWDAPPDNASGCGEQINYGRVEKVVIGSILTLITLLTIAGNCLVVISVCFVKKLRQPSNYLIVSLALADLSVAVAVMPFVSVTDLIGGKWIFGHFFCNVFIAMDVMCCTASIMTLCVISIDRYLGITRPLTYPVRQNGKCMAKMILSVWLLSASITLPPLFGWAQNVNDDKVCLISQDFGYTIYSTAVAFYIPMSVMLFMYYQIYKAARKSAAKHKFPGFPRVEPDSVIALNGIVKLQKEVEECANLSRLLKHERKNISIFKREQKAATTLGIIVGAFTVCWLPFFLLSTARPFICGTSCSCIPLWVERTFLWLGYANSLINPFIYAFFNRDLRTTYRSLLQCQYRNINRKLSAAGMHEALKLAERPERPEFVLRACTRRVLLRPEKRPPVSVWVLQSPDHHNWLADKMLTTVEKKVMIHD
Readout Kind: Ki (nM)
Report the figure in nM without appending any unit label.

Recorded Ki of `CN1CCc2ccc3[nH]c(=O)c4cccc5c4c3c2[C@H]1C5` , please.
55

====

# System Under Test: UniProtKB P18901
# Sequence (P18901 whole entry): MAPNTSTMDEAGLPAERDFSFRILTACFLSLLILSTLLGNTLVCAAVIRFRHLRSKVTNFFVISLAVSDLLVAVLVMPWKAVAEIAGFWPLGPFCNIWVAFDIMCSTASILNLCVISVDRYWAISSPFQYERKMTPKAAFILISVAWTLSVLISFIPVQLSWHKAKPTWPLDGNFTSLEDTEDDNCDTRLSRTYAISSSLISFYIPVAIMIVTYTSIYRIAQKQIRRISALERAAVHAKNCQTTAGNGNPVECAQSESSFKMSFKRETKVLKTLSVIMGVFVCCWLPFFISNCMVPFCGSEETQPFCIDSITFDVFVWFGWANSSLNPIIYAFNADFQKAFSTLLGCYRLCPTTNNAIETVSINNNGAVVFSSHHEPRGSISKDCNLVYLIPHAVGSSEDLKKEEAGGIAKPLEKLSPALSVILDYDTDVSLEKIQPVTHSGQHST
# Assay Procedure: Displacement of [3H]SCH-23390 from rat dopamine D1 receptor
Readout Kind: Ki

Below are worked cases with known answers.
Item `COc1cc2c(cc1OC)-c1c(OC)c(O)c(I)c3c1[C@H](C2)N(C)CC3` has what recorded Ki?
0.006 µM

What about `CCCCCCCCCCCCCCCCCCCCCC(=O)Oc1cccc2c1-c1cccc3c1[C@@H](C2)N(CCC)CC3` ?
> 10 µM

Query `COc1cc2c(cc1OC)-c1c(OC)c(O)c(Br)c3c1[C@H](C2)N(C)CC3` next
0.015 µM

Follow-up item: Oc1cc2c3c(c1O)Cc1ccccc1CC3NCC2 (configuration not stated)
10.8 µM

And COc1cc2c3c(c1)Cc1ccccc1CC3NCC2 (configuration not stated) ?
6.3 µM

Others:
What value of measured Ki is listed for CCCN1CCc2cc(O)c(O)c3c2C1Cc1ccccc1C3 (configuration not stated) ?
22.3 µM

Check COc1cc2c(cc1OC)-c1c(OC)c(OC)cc3c1[C@H](C2)N(C)CC3 [GLAUCINE] too.
2.9 µM

What about Oc1cc2c3c(c1)Cc1ccccc1CC3NCC2 (configuration not stated) ?
3.7 µM

Another compound: CCCN1CCc2cc(O)cc3c2C1Cc1ccccc1C3 (configuration not stated)
30 µM

What would you report for `Cc1ccc2c(c1O)-c1cccc3c1[C@@H](C2)NCC3` ?
> 20 µM

And the next one, CCCN1CCc2cc(OC)cc3c2C1Cc1ccccc1C3 (configuration not stated) ?
11.6 µM

Quick one: COc1cc2c(cc1OC)-c1c(OC)c(O)cc3c1[C@H](C2)N(C)CC3 [PREDICENTRINE]
0.24 µM

// next record `COc1cc2c(cc1O)C[C@H]1c3c(c(I)c(O)c(OC)c3-2)CCN1C`
0.002 µM

How about COc1cc2c(cc1O)C[C@H]1c3c(c(Br)c(O)c(OC)c3-2)CCN1C [3-BROMOBOLDINE] ?
0.049 µM

And then COc1cc2c3c(c1OC)Cc1ccccc1CC3N(Cc1ccccc1)CC2 (configuration not stated) , what is it?
> 60 µM

Then this compound: COc1cc2c3c(c1OC)Cc1ccccc1CC3N(C)CC2 (configuration not stated)
7.2 µM
